Values were extracted from patent US4424351A.

Test system: white mice
Test: motility inhibiting effect (orientation reflex, eight-channel Dews apparatus)
Format: in vivo
Conditions: Mus musculus, 0.5 h; white mice, oral, pre-treatment of 30 minutes; light beam interceptions; read-out: ED50 p.o. (motility inhibiting effect)
Property: ED50; scope: individual compounds
PARAMETER: ED50

1. CCCC(C)(COC(N)=O)COC(N)=O [Meprobamate, reference compound]: 270 mg/kg
2. CC(=O)N1N=C(c2ccccc2)Nc2cnccc21: 30 mg/kg
3. CCC(=O)N1N=C(c2ccccc2)Nc2cnccc21: 35 mg/kg
4. CCCC(=O)N1N=C(c2ccccc2)Nc2cnccc21: 90 mg/kg
5. CCC(=O)N1N=C(c2ccccc2)Nc2cnccc21.Cl [12 (HCl)]: 50 mg/kg
